# Activity per record follows
target: 20S proteasome (Homo sapiens) (UniProt P49721+P20618+P28074+P28062+P28065+P28072+P25786+P25787+P25788+P25789+P28066+P60900+O14818+Q8TAA3+P40306+A5LHX3+P49720+P28070+Q99436)
test: Stimulation of human 20S proteasome assessed as increase in proteasome activity at 25 uM and measured upto 60 mins using FRET peptide as substrate by FRET assay relative to control
Format: protein-complex assay
condition_set: filed as activator
Report the figure in % without appending any unit label.

# annotated cases, reported Activity shown
{"smiles_repr": "CCCCCCCC/C=C\\CCCCCCCC(=O)NCCC", "value_reported": 154}
{"smiles_repr": "CCCCC/C=C\\C/C=C\\C/C=C\\C/C=C\\CCCC(=O)Nc1ccc(O)cc1", "value_reported": 219}
{"smiles_repr": "CCCCCCCC/C=C\\CCCCCCCC(=O)Nc1ccc(Oc2ccccc2)cc1", "value_reported": 145}
{"smiles_repr": "CCCCCCCC/C=C\\CCCCCCCC(=O)NCc1ccc(O)cc1", "value_reported": 361}
{"smiles_repr": "CCCCCCCC/C=C\\CCCCCCCC(=O)NC1CCCCCC1", "value_reported": 136}
{"smiles_repr": "CCCCCCCC/C=C\\CCCCCCCC(=O)N[C@@H](C)c1ccccc1", "value_reported": 195}
{"smiles_repr": "CCCCCCCC/C=C\\CCCCCCCC(=O)NCc1ccc(C(F)(F)F)cc1", "value_reported": 92}
{"smiles_repr": "CCCCCCCC/C=C\\CCCCCCCC(=O)Nc1ccccc1", "value_reported": 159}
{"smiles_repr": "CCCCCCCC/C=C\\CCCCCCCC(=O)NCc1ccc(OC)cc1", "value_reported": 116}
{"smiles_repr": "CCCCCCCC/C=C\\CCCCCCCC(=O)Nc1ccc(O)cc1", "value_reported": 247}

What does the data say about its Activity? Entry: CCCCCCCC/C=C\CCCCCCCC(=O)NCc1ccccc1
208

What do we get for CCCCCCCC/C=C\CCCCCCCC(=O)Nc1ccc(C(C)=O)cc1 ?
241

What do we get for CCCCCCCC/C=C\CCCCCCCC(=O)Nc1ccc(Cl)cc1 ?
144

What do we get for CCCCCCCC/C=C\CCCCCCCC(=O)NCc1ccc(C(C)(C)C)cc1 ?
106

What do we get for CCCCCCCC/C=C\CCCCCCCC(=O)NCc1ccc(C)cc1 ?
167

What do we get for CCCCCCCC/C=C\CCCCCCCC(=O)NC1CCCCC1 ?
204

What do we get for CCCCCCCC/C=C\CCCCCCCC(=O)NCc1ccccc1C ?
107

====

target: 20S proteasome (Homo sapiens) (UniProt P49721+P20618+P28074+P28062+P28065+P28072+P25786+P25787+P25788+P25789+P28066+P60900+O14818+Q8TAA3+P40306+A5LHX3+P49720+P28070+Q99436)
test: Stimulation of human 20S proteasome assessed as increase in proteasome activity at 25 uM and measured upto 60 mins using FRET peptide as substrate by FRET assay relative to control
Format: protein-complex assay
condition_set: filed as activator
measured_metric: Activity (%)
Report the figure in % without appending any unit label.

{"smiles_repr": "CCCCCCCC/C=C\\CCCCCCCC(=O)NC1CCCC1", "measured_metric": "Activity", "value_reported": 218}
{"smiles_repr": "CCCCCCCC/C=C\\CCCCCCCC(=O)N[C@H]1CC[C@H](C)CC1", "measured_metric": "Activity", "value_reported": 118}
{"smiles_repr": "CCCCCCCC/C=C\\CCCCCCCC(=O)NC1CCCCCCC1", "measured_metric": "Activity", "value_reported": 148}

What does the data say about its Activity? Entry: CCCCCCCC/C=C\CCCCCCCC(=O)NCc1cccc(C)c1
183

What do we get for CCCCCCCC/C=C\CCCCCCCC(=O)NCCCC ?
138
